Recorded Anatomical Pathology (Day 10), Heart values for a group of compounds are listed next.
Assay: Anatomic pathology (heart and kidney histopathology) in mice
Format: in vivo, CD-1 mice
Conditions: 20 mg/kg intravenously daily for 9 days, microscopic histopathology on day 10
MEASURED_METRIC: Anatomical Pathology (Day 10), Heart

COMPOUND: CC(c1ccccc1)C1NC(=O)CNC(=O)C(CO)NC(=O)C(C(O)C2CN(Cc3ccc(C(=O)O)cc3)C(=N)N2C2OC(CO)C(O)C(O)C2O)NC(=O)C(C(O)C2CNC(=N)N2)NC(=O)C(Cc2ccc(OC3OC(CO)C(OC4OC(CO)C(O)C(O)C4O)C(O)C3O)cc2)NC1=O (stereo not shown) [Example 69]
ASSAY_RESULT: 0

COMPOUND: CN=C1N(C)CC(C(O)C2NC(=O)C(Cc3ccc(OC4OC(CO)C(OC5OC6COC7(OC6C(O)C5O)C5CC6CC(C5)CC7C6)C(O)C4O)cc3)NC(=O)C(C(C)c3ccccc3)NC(=O)CNC(=O)C(CO)NC(=O)C(C(O)C3CN(C)C(=NC)N3C3OC(CO)C(O)C(O)C3O)NC2=O)N1C (stereo not shown) [Example 81]
ASSAY_RESULT: 0

COMPOUND: CN=C1N(C)CC(C(O)C2NC(=O)C(Cc3ccc(OC4OC(CO)C(OC5OC(CO)C(O)C(O)C5O)C(O)C4O)cc3)NC(=O)C(C(C)c3ccccc3)NC(=O)CNC(=O)C(CO)NC(=O)C(C(O)C3CN(C)C(=NC)N3C3OC(CO)C(O)C(O)C3O)NC2=O)N1C (stereo not shown) [Example 64]
ASSAY_RESULT: 0

====

Test system: Enterococcus sp.
Assay: In vitro antibacterial evaluation: minimum inhibitory concentration (MIC), broth dilution method
Type: cell-based
Settings: Enterococcus faecalis (ATCC 29212); 18 hours at 35° C.
MEASURED_METRIC: MIC Enterococcus faecalis (ATCC 29212) (µg/mL)

COMPOUND: CC(c1ccccc1)C1NC(=O)CNC(=O)C(CO)NC(=O)C(C(O)C2CNC(=N)N2C2OC(CO)C(O)C(O)C2O)NC(=O)C(C(O)C2CNC(=N)N2)NC(=O)C(Cc2ccc(OC3OC(CO)C(OC4OC5COC(C)(c6ccc(F)cc6)OC5C(O)C4O)C(O)C3O)cc2)NC1=O (stereo not shown)
MEASURED_METRIC: MIC Enterococcus faecalis (ATCC 29212)
UNIT_SPEC: µg/mL
SIGN_QUALIFIER: =
ASSAY_RESULT: 4
//
COMPOUND: CC(c1ccccc1)C1NC(=O)CNC(=O)C(CO)NC(=O)C(C(O)C2CNC(=N)N2C2OC(CO)C(O)C(O)C2O)NC(=O)C(C(O)C2CNC(=N)N2)NC(=O)C(Cc2ccc(OC3OC(CO)C(OC4OC5COC6(CC7CCC6(C)C7(C)C)OC5C(O)C4O)C(O)C3O)cc2)NC1=O (stereo not shown)
MEASURED_METRIC: MIC Enterococcus faecalis (ATCC 29212)
UNIT_SPEC: µg/mL
SIGN_QUALIFIER: =
ASSAY_RESULT: 2
//
COMPOUND: N=C1NCC(C(O)C2NC(=O)C(CC3CCC(OC4OC(CO)C(OC5OC6COC7(OC6C(O)C5O)C5CC6CC(C5)CC7C6)C(O)C4O)CC3)NC(=O)C(CC3CCCCC3)NC(=O)CNC(=O)C(CO)NC(=O)C(C(O)C3CNC(=N)N3C3OC(CO)C(O)C(O)C3O)NC2=O)N1 (stereo not shown) [Example 222]
MEASURED_METRIC: MIC Enterococcus faecalis (ATCC 29212)
UNIT_SPEC: µg/mL
SIGN_QUALIFIER: >
ASSAY_RESULT: 64
//
COMPOUND: N=C1NCC(C(O)C2NC(=O)C(CC3CCC(OC4OC(CO)C(OC5OC6COC7(OC6C(O)C5O)C5CC6CC(C5)CC7C6)C(O)C4O)CC3)NC(=O)C(CC3CCCCC3)NC(=O)CNC(=O)C(CO)NC(=O)C(C(O)C3CNC(=N)N3C3OC(CO)C(O)C(O)C3O)NC2=O)N1 (stereo not shown) [Example 223]
MEASURED_METRIC: MIC Enterococcus faecalis (ATCC 29212)
UNIT_SPEC: µg/mL
SIGN_QUALIFIER: >
ASSAY_RESULT: 64
